- system: BTK (Homo sapiens, UniProt Q06187)
- Sequence (Q06187 402-655 limits assumed): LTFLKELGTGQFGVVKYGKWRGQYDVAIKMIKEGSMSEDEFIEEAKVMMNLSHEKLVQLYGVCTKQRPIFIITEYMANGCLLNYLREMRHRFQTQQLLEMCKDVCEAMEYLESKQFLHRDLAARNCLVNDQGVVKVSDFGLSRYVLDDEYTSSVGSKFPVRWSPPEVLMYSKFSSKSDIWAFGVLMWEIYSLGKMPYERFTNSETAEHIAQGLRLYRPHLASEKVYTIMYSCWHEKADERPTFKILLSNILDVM
- assay-explanation: biochemical
- assay-conditions: read-out: BTK inhibition (%), 0.75 uM BTK, […] probe 3l, 15 min preincubation
endpoint: inhibition at 10 µM (%)
Output spec: scalar in %, unitless text.

The cases that follow already have their inhibition at 10 µM on record.
# compound, endpoint, unit-label, recorded-value
records = [
    ("COc1ccc(S(=O)(=O)Nc2cc(-c3c(O)ccc4ccccc34)c(O)c3ccccc23)cc1 [PCM-0215905]", "inhibition at 10 µM", "%", 86.5),
    ("COc1cnc(NS(=O)(=O)c2ccc(N)cc2)nc1 [PCM-0086492]", "inhibition at 10 µM", "%", 5.4),
]

# lookup: inhibition at 10 µM of COc1cc(-c2cn(C)c(=O)c3cnccc23)cc(OC)c1CN(C)C [PCM-0215650]
-3.1

For the compound shown here, N#C/C=C1/C=C[C@@H](O)[C@H](O)[C@H]1O[C@@H]1O[C@H](CO)[C@@H](O)[C@H](O)[C@H]1O [PCM-0216369] , give the reported inhibition at 10 µM.
-11.6

Consider the compound CN(C)CCc1ccc(O)cc1 [PCM-0094832] and give its measured inhibition at 10 µM.
-21.8

What does the data say about its inhibition at 10 µM? Entry: N[C@@H](Cc1cc(I)c(O)c(I)c1)C(=O)O [PCM-0215163]
-31.9

// returns reported inhibition at 10 µM for input CO[C@H]1[C@@H](O)[C@H](O[C@@H]2[C@@H](C)O[C@@H](O[C@H]3CC[C@@]4(C)[C@@H](CC[C@@]56O[C@@]57CC[C@@H](C(C)=O)[C@@]7(C)[C@H](OC(C)=O)[C@@H](OC(=O)c5ccccc5)[C@H]46)C3)C[C@H]2OC)O[C@H](C)[C@H]1O [PCM-0216600]
-12.4

---

- system: BTK (Homo sapiens, UniProt Q06187)
- assay-explanation: biochemical
- assay-conditions: read-out: BTK inhibition (%), 0.75 uM BTK, […] probe 3l, 15 min preincubation
# key: entry, value: inhibition at 10 µM
API: value field is a number in %; no unit string.

Example results:
# molecule, unit-label, inhibition at 10 µM
measured = [
    ("CC(C)(O)CC[C@@H](O)[C@](C)(O)[C@H]1CC[C@@]2(O)C3=CC(=O)[C@@H]4C[C@@H](O)[C@@H](O)C[C@]4(C)[C@H]3CC[C@]12C [PCM-0095305]", "%", 6.2),
    ("COc1cc(C=O)ccc1O [PCM-0094868]", "%", 21.8),
    ("CN1CCN(Cc2ccc(-c3cnc4[nH]cc(-c5ccc6[nH]ccc6c5)c4c3)cc2)CC1 [PCM-0215377]", "%", 111),
    ("C[C@H](CC(=O)C[C@@H](C)[C@H]1C[C@H](O)[C@@]2(C)C3=C(C(=O)C[C@]12C)[C@@]1(C)CCC(=O)C(C)(C)[C@@H]1C[C@@H]3O)C(=O)O [PCM-0214862]", "%", -6.2),
]

Find the recorded inhibition at 10 µM belonging to COc1ccc(C=O)c(O)c1 [PCM-0216133] and report it.
5.4

Report inhibition at 10 µM for C[N+]1(C)CCCC(OC(=O)C(O)(c2ccccc2)c2ccccc2)C1 (stereo not shown) [PCM-0215256] please.
-7.8

Return reported inhibition at 10 µM; argument: O=C(Nc1ccccc1)c1cc([N+](=O)[O-])ccc1Cl [PCM-0065623]
0.8

---

- system: BTK (Homo sapiens)
- assay-explanation: biochemical
- assay-conditions: read-out: BTK inhibition (%), 0.75 uM BTK, […] probe 3l, 15 min preincubation
Here the recorded inhibition at 10 µM is given for each entry.
Record the result as a number with its unit.

# compound, inhibition at 10 µM
data = [
    ("COc1cc2c(cc1OC)CN(CCc1ccc(NC(=O)c3cc(OC)c(OC)cc3NC(=O)c3cnc4ccccc4c3)cc1)CC2 [PCM-0095616]", "4.6%"),
    ("Cc1ccc(NC(=O)Nc2cc(-c3ccccc3-c3nn[nH]n3)ccc2N(CC(C)C)CC(C)C)cc1 [PCM-0215955]", "72.6%"),
    ("COCCOc1ccc2c(c1)ncn2-c1ccc2cccc(N3CCC(N)CC3)c2n1 [PCM-0095094]", "-18.6%"),
]

Given the entry C=CCc1cccc(/C=N/NC(=O)CN2CCN(Cc3ccccc3)CC2)c1O [PCM-0064890] , report its measured inhibition at 10 µM.
9%

Which inhibition at 10 µM reading was recorded for the compound CNC(=C[N+](=O)[O-])NCCSCc1csc(CN(C)C)n1 [PCM-0086495] ?
2.1%

GET /values?readout=inhibition at 10 µM&item= Nc1ncnc2c1c(I)cn2[C@@H]1O[C@H](CO)[C@@H](O)[C@H]1O [PCM-0215664]
23.9%

What inhibition at 10 µM value was documented for this compound, Nc1ncn([C@@H]2O[C@H](CO)[C@@H](O)[C@H]2O)c(=O)n1 [PCM-0064526] ?
-6.2%

Which inhibition at 10 µM reading was recorded for the compound CC1=C(CC[C@@H](C)CO[C@@H]2O[C@H](CO)[C@@H](O)[C@H](O)[C@H]2O)O[C@H]2C[C@H]3[C@@H]4CC=C5C[C@@H](O[C@@H]6O[C@H](CO)[C@@H](O[C@@H]7O[C@@H](C)[C@H](O)[C@@H](O)[C@H]7O)[C@H](O)[C@H]6O[C@@H]6O[C@@H](C)[C@H](O)[C@@H](O)[C@H]6O)CC[C@]5(C)[C@H]4CC[C@]3(C)[C@@H]12 [PCM-0216365] ?
-11.9%

Given the entry CC(=O)OCC1=C(C(=O)O)N2C(=O)[C@@H](NC(=O)CSc3ccncc3)[C@H]2SC1 [PCM-0215254] , report its measured inhibition at 10 µM.
3.1%

Return reported inhibition at 10 µM; argument: COc1cc2oc(=O)ccc2cc1O [PCM-0216502]
-10%

I am curious: what inhibition at 10 µM value has been reported for CC[C@H](C)[C@H](N)C(=O)O [PCM-0215927] ?
7.7%

Which measured inhibition at 10 µM value corresponds to COc1cc2nccc(Oc3ccc(NC(=O)NC4CC4)c(Cl)c3)c2cc1C(N)=O [PCM-0095014] ?
36.6%

---

- system: BTK (Homo sapiens)
- assay-explanation: biochemical
- assay-conditions: read-out: BTK inhibition (%), 0.75 uM BTK, […] probe 3l, 15 min preincubation
endpoint: inhibition at 10 µM

The examples below pair each entry with its known result.
# sample-smiles, system, recorded-value
data = [
    ("c1ccc(NCc2ccc(CNc3ccccn3)cc2)nc1", "BTK (Homo sapiens)", "-4.8%"),
    ("C[C@@H]1CN(CC(=O)Nc2ccc3c(c2)Cc2cccc(-c4cc(=O)cc(N5CCOCC5)o4)c2S3)C[C@H](C)O1", "BTK (Homo sapiens)", "26.2%"),
    ("CC(=O)[C@@]1(O)CC[C@H]2[C@@H]3C[C@H](C)C4=CC(=O)CC[C@]4(C)[C@H]3CC[C@@]21C", "BTK (Homo sapiens)", "-7.8%"),
    ("Cc1cc(OCc2nnc(SC3CCCC3)n2-c2cccnc2)ccc1-c1ccc(S(C)(=O)=O)cc1", "BTK (Homo sapiens)", "0.8%"),
]

Reported inhibition at 10 µM, molecule O=C1CCC[C@@H]2[C@H]3CCCN4CCC[C@H](CN12)[C@@H]34 : ____
-16.3%

Which measured inhibition at 10 µM value corresponds to NC(=O)c1ccc(-c2nc(-c3ccc4c(c3)OCCO4)c(-c3ccccn3)[nH]2)cc1 ?
17.2%

---

- system: BTK (Homo sapiens, UniProt Q06187)
- assay-explanation: biochemical
- assay-conditions: read-out: BTK inhibition (%), 0.75 uM BTK, […] probe 3l, 15 min preincubation
endpoint: inhibition at 10 µM (%)
State just the number; it will be interpreted in %.

Example results:
# molecule, unit-label, inhibition at 10 µM
data = [
    ("O=S(=O)(Cl)c1ccc(-c2ccccc2)cc1", "%", -8.5),
    ("O=C(O)C(=O)O", "%", -10),
    ("O=C(O)CCCC[C@@H]1SC[C@@H]2NC(=O)N[C@@H]21", "%", 0),
]

Consider now this further molecule.
Data request, read-out inhibition at 10 µM, for O=c1nc(N2CCOCC2)oc2c(-c3cccc4c3sc3ccccc34)cccc12
-1.4

---

- system: BTK (Homo sapiens)
- assay-explanation: biochemical
- assay-conditions: read-out: BTK inhibition (%), 0.75 uM BTK, […] probe 3l, 15 min preincubation
endpoint: inhibition at 10 µM (%)
Only the number, expressed in %, is required.

# count of solved cases: 4
# molecule, system, endpoint, recorded-value
measured = [
    ("Oc1ncnc2[nH]ncc12", "BTK (Homo sapiens)", "inhibition at 10 µM", -5.5),
    ("C[C@H](Cn1cnc2c(N)ncnc21)OCP(=O)(O)O", "BTK (Homo sapiens)", "inhibition at 10 µM", -11.7),
    ("NC1(c2ccc(-c3nc4ccn5c(=O)[nH]nc5c4cc3-c3ccccc3)cc2)CCC1", "BTK (Homo sapiens)", "inhibition at 10 µM", -2.8),
    ("Oc1ccc([C@H]2COc3cc(O)ccc3C2)cc1", "BTK (Homo sapiens)", "inhibition at 10 µM", -6.2),
]

Please examine the following record next.
What measured inhibition at 10 µM goes with O=C(C[S+]([O-])Cc1ccco1)NC/C=C\COc1cc(CN2CCCCC2)ccn1 (centres unmarked) ?
-9

These entries and their values trace back to paper PMC8041284.
